- Tested on: Sporothrix brasiliensis CBS 133006
- Experimental Details: growth inhibition relative to untreated control; higher = more growth inhibition (more antifungal activity), active = 80 or more; extreme values may be limits of the assay
- Reported Conditions: 1 µM; 48 h
Response key: criterion met means growth inhibition >= 5%; criterion not met means growth inhibition < 5%.

// known answers, use as guide
CCOc1ccc(-c2nc(NC(=O)CS(=O)(=O)c3ccccc3)sc2C)cc1 : criterion met
CCOC(=O)c1c(NC(=O)c2c(F)c(F)c(F)c(F)c2F)sc(C(N)=O)c1C : criterion met
Cc1cc(C)cc(COc2ccc3c(C)c(CCC(=O)O)c(=O)oc3c2C)c1 : criterion not met
CNC(=O)C1Cc2c([nH]c3cc(Cl)ccc23)C2(CCN(CCc3ccccc3)CC2)N1 (stereo not drawn) : criterion met

Entry Nc1ncnc2c1c(Cc1cccc3ccccc13)nn2CC1CCNCC1 : is its growth inhibition no less than 5%?
criterion not met

Entry O=C(NC1CCN(c2ccnc3ccccc23)C1)c1cccc(C(F)(F)F)c1 (stereo not drawn) : is its growth inhibition no less than 5%?
criterion not met

Entry CC(=O)Nc1ccc(-c2noc(CC3CCCN(Cc4cccc(F)c4C)C3)n2)cc1 (stereo not drawn) : is its growth inhibition no less than 5%?
criterion met

Entry COc1ccc2nc(C)cc(OCC(=O)NCc3ccccc3)c2c1 : is its growth inhibition no less than 5%?
criterion not met

* * *

- Tested on: Sporothrix brasiliensis CBS 133006
- Experimental Details: growth inhibition relative to untreated control; higher = more growth inhibition (more antifungal activity), active = 80 or more; extreme values may be limits of the assay
- Reported Conditions: 1 µM; 48 h
Quantity Name: growth inhibition (%)
Express your answer in %, writing the number without its unit.

Take a look at these entries with their results.
c1ccc(Oc2ccc(-c3cncc(-c4ccc5[nH]ccc5c4)n3)cc2)cc1 : 8
FC(F)(F)c1cc(NCCc2ccccc2)nc(-c2ccccn2)n1 : 10
COc1cc2ncnc(NC3CCN(Cc4ccccc4)CC3)c2cc1OC : 8

Then this compound:
# get_value(readout='growth inhibition', item= COc1ccc(-c2cnc3cnc(-c4cccc(OC(C)C)c4)cn23)cc1 )
10.2
